# Experimental target: SERT (Rattus norvegicus)
# Sequence (P31652 whole entry): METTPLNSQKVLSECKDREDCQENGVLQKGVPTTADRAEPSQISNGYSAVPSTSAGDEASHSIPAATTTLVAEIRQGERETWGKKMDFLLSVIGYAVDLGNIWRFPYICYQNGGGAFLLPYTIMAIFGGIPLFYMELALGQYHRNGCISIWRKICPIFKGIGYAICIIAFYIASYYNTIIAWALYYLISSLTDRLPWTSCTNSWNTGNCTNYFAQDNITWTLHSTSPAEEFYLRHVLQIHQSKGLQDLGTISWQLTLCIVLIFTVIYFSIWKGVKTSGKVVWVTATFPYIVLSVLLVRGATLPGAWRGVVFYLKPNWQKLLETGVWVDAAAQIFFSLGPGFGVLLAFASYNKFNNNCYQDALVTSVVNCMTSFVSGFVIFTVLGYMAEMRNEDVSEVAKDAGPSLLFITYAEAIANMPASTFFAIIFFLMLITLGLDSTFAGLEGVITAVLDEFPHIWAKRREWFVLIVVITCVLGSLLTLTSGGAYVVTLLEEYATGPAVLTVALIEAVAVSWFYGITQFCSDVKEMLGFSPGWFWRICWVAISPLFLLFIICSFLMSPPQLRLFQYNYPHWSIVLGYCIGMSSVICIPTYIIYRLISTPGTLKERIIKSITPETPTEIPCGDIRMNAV
# Experimental protocol: Release of [3H]5-HT from rat brain synaptosomes
# pEC50 annotations
Kindly note that pEC50 refers to -log10 of the concentration in mol/L and answer with the value alone.

INSERT INTO assay_data (molecule, reading) VALUES
  ('CCC(NC)C(=O)c1ccc2c(c1)OCO2 (centres unmarked)', 6.48);

## Task Could you tell me which pEC50 is on file for CCCC(NC)C(=O)c1ccc2c(c1)OCO2 (centres unmarked) ?
## Result 5.99

###

# Experimental target: DAT (Rattus norvegicus, UniProt P23977)
# Sequence (P23977 whole entry): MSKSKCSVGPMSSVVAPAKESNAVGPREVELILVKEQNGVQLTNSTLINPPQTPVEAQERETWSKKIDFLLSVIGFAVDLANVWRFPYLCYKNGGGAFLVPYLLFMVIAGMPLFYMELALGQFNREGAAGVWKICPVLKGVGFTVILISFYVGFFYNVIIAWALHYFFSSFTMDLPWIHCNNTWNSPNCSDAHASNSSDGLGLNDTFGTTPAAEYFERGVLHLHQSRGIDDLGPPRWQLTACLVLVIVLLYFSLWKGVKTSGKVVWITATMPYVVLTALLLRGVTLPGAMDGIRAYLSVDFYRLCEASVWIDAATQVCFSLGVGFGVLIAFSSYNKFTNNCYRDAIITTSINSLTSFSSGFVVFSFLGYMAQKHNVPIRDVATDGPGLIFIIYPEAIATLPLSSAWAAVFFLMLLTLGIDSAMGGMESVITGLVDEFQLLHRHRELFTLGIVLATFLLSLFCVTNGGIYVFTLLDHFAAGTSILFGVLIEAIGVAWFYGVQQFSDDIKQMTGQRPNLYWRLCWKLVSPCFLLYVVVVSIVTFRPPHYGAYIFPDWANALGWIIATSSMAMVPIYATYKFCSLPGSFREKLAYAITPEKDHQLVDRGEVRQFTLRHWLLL
# Experimental protocol: Uptake inhibition of [3H]dopamine in rat brain synaptosomes
Measured quantity: IC50 (nM)
Enter your answer as a number in nM; do not include the unit.

INSERT INTO assay_data (compound, measured_quantity, reading) VALUES
  ('CCCC(NC)C(=O)c1ccc2c(c1)OCO2 (centres unmarked)', 'IC50', 120);

Here's the next entry for you.
## Task Could you tell me which IC50 is on file for CCC(NC)C(=O)c1ccc2c(c1)OCO2 (centres unmarked) ?
## Result 400

###

# pIC50 annotations
# Experimental target: SERT (Rattus norvegicus)
# Experimental protocol: Uptake inhibition of [3H]5-HT in rat brain synaptosomes
# Type: biochemical
Kindly note that pIC50 refers to -log10 of the concentration in mol/L and answer with the value alone.

## Task Could you tell me which pIC50 is on file for CCCC(NC)C(=O)c1ccc2c(c1)OCO2 (centres unmarked) [pentylone] ?
## Result 5.87

## Task Could you tell me which pIC50 is on file for CCC(NC)C(=O)c1ccc2c(c1)OCO2 (centres unmarked) [butylone] ?
## Result 5.84

###

# Experimental target: human SERT (Homo sapiens, UniProt P31645)
# Sequence (P31645 whole entry): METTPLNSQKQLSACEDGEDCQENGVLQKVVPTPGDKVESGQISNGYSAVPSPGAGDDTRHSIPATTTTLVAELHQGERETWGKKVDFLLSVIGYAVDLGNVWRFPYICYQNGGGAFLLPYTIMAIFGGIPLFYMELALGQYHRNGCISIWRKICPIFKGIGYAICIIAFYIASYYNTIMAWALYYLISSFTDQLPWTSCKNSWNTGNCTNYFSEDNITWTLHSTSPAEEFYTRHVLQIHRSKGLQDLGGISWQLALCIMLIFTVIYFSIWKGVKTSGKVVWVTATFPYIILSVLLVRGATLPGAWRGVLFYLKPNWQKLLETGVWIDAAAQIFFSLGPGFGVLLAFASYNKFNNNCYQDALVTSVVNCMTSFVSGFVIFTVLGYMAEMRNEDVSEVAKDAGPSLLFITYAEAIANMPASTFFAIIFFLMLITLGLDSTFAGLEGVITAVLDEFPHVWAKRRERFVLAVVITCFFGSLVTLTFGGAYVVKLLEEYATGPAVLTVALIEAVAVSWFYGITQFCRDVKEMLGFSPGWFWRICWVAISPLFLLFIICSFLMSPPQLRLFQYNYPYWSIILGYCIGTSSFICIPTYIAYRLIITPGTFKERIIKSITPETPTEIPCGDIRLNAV
# Experimental protocol: Uptake inhibition in HEK-293 cells expressing human SERT
# IC50 annotations
Enter your answer as a number in µM; do not include the unit.

INSERT INTO results (compound, reading) VALUES
  ('CCC(NC)C(=O)c1ccc2c(c1)OCO2 (centres unmarked)', 24.4);

## Task Could you tell me which IC50 is on file for CCCC(NC)C(=O)c1ccc2c(c1)OCO2 (centres unmarked) ?
## Result 11.7

###

# Experimental target: human DAT (Homo sapiens, UniProt Q01959)
# Sequence (Q01959 whole entry): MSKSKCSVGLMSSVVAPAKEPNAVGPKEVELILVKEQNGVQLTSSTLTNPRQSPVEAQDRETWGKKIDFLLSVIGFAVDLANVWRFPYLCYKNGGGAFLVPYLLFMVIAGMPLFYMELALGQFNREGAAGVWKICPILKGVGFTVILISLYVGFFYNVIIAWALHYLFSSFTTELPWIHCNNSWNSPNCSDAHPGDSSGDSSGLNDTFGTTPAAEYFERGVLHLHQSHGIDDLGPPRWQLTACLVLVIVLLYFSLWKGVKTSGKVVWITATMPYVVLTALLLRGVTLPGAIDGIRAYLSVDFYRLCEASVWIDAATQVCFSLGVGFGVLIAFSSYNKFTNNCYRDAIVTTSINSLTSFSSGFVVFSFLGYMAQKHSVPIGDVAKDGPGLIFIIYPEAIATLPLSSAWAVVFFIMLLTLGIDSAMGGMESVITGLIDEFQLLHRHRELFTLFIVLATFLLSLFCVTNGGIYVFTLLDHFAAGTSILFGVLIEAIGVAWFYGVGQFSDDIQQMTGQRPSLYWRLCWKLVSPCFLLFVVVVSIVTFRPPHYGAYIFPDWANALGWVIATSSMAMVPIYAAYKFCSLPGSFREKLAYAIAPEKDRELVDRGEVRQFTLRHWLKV
# Experimental protocol: Uptake inhibition in HEK-293 cells expressing human DAT
Measured quantity: IC50 (nM)
Enter your answer as a number in nM; do not include the unit.

INSERT INTO results (molecule, reading) VALUES
  ('CCCC(NC)C(=O)c1ccc2c(c1)OCO2 (centres unmarked) [pentylone]', 310);

## Task Could you tell me which IC50 is on file for CCC(NC)C(=O)c1ccc2c(c1)OCO2 (centres unmarked) [butylone] ?
## Result 1440
